Origin of measurements: the supplement of paper PMC6757056

B1: library; a variant is named by its letters at N, in order (parent)
chain: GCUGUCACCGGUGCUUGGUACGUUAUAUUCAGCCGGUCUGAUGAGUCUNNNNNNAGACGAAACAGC

- Variants of: B1
- METHOD SUMMARY: normalized RNA/DNA level without ligand (relative to sTRSVctl = 100) (log10 (% of sTRSVctl)); HEK293T overexpressing SLC46A1; higher = less ribozyme self-cleavage, higher mRNA level
- MEASUREMENT CONTEXT: without (6R,S)-folinic acid; ligand present: no
MEASUREMENT TYPE: normalized RNA/DNA level without ligand (log10)
Just the number, please.

Take a look at these entries with their results.
GCUGUCACCGGUGCUUGGUACGUUAUAUUCAGCCGGUCUGAUGAGUCUAGCCACAGACGAAACAGC [AGCCAC] = 2.02
GCUGUCACCGGUGCUUGGUACGUUAUAUUCAGCCGGUCUGAUGAGUCUAGCAAUAGACGAAACAGC [AGCAAU] = 2
GCUGUCACCGGUGCUUGGUACGUUAUAUUCAGCCGGUCUGAUGAGUCUUCAUGCAGACGAAACAGC [UCAUGC] = 2.04
GCUGUCACCGGUGCUUGGUACGUUAUAUUCAGCCGGUCUGAUGAGUCUAUCCAGAGACGAAACAGC [AUCCAG] = 1.98
GCUGUCACCGGUGCUUGGUACGUUAUAUUCAGCCGGUCUGAUGAGUCUCGGUUUAGACGAAACAGC [CGGUUU] = 2.03

Please fill in: normalized RNA/DNA level without ligand (log10) reported for GCUGUCACCGGUGCUUGGUACGUUAUAUUCAGCCGGUCUGAUGAGUCUGCGAAUAGACGAAACAGC [GCGAAU] = 2.01

Record GCUGUCACCGGUGCUUGGUACGUUAUAUUCAGCCGGUCUGAUGAGUCUUUUGCCAGACGAAACAGC [UUUGCC] , field normalized RNA/DNA level without ligand (log10): 2
